experiment: growth inhibition, single agents and combos, CRL2098, cell-based, BGB or cisplatin IC20 combos, synergistic combos for chromothripsis tumors (AID 1671454);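 note: cells exposed for 96 h before readout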
test-conditions: CRL2098 osteosarcoma cells, drug combinations, at 0.5 µM, hits give high values
Non-standard residues stand in square brackets, D forms with d. Residues, ends and D or L forms follow the SMILES beside them. Dolaproine = CO[C@@H]([C@@H]1CCCN1)[C@@H](C)C(=O)O; Dil = CC[C@H](C)[C@H](NC)[C@@H](CC(=O)O)OC; NMeV = CN[C@H](C(=O)O)C(C)C
Entry flag: rule met if inhibition reaches -10%; rule not met if it does not.

compound: Cn1cnc2[nH]c(=O)[nH]c(=O)c21
class-name: rule not met
--
compound: CON=C1CN(c2nc3c(cc2F)c(=O)c(C(=O)O)cn3C2CC2)CC1CN (stereo not drawn)
class-name: rule met
--
compound: Cc1ccc([N+](=O)[O-])cc1S(=O)(=O)N(C)/N=C\c1cnc2ccc(Br)cn12
class-name: rule met
--
compound: CC[C@H](C)[C@@H]([C@@H](CC(=O)N1CCC[C@H]1[C@H](OC)[C@@H](C)C(=O)N[C@@H](Cc1ccccc1)C(=O)O)OC)N(C)C(=O)[C@@H](NC(=O)[C@@H](NC)C(C)C)C(C)C (H-[NMeV]V[Dil][Dolaproine]F-OH)
class-name: rule met
--
compound: N#Cc1ccc(OC2CCC(NC(=O)CCSc3nc4ccccc4c(=O)[nH]3)CC2)cc1 (stereo not drawn)
class-name: rule not met

input: Quick check, inhibition >= -10%? C=C1C(=O)O[C@@H]2C=C(C)CCC=C(C)CC[C@@H]12
output: rule not met

input: Quick check, inhibition >= -10%? Cc1cc(C=CC#N)cc(C)c1Nc1ccnc(Nc2ccc(C#N)cc2)n1
output: rule not met

input: Quick check, inhibition >= -10%? C[C@@H]1O[C@@H](O[C@@H]2[C@@H](O)[C@H](OCCc3ccc(O)c(O)c3)O[C@H](CO)[C@H]2OC(=O)C=Cc2ccc(O)c(O)c2)[C@H](O)[C@H](O)[C@H]1O
output: rule not met
